Origin of the recorded values: patent US4410626A

tested on: Salmonella typhi H901W; test: Minimum inhibitory concentration, Salmonella typhi; type: cell-based; conditions: Salmonella enterica, read-out: Minimum inhibitory concentration
Readings of MIC for the listed compounds

>  <compound>
CO[C@@]1(NC(=O)CCCC(=O)O)C(=O)N2C(C(=O)O)=C(COC(=O)/C=C/c3ccc(OS(=O)(=O)O)cc3)CS[C@@H]21

>  <MIC (µg/mL)>
50

$$$$
>  <compound>
CO[C@@]1(NC(=O)CCC[C@@H](N)C(=O)O)C(=O)N2C(C(=O)O)=C(COC(=O)/C=C/c3ccc(OS(=O)(=O)O)cc3)CS[C@@H]21

>  <MIC (µg/mL)>
3.13

$$$$
>  <compound>
CO[C@@]1(NC(=O)CCCC(=O)O)C(=O)N2C(C(=O)O)=C(COC(=O)/C=C/c3ccc(O)cc3)CS[C@@H]21

>  <MIC (µg/mL)>
25

$$$$
>  <compound>
COC(=Cc1ccc(OS(=O)(=O)O)cc1)C(=O)OCC1=C(C(=O)O)N2C(=O)[C@](NC(=O)CCC[C@@H](N)C(=O)O)(OC)[C@H]2SC1 [Comp. a, reference compound]

>  <MIC (µg/mL)>
25

$$$$
>  <compound>
CO[C@@]1(NC(=O)CCC[C@@H](N)C(=O)O)C(=O)N2C(C(=O)O)=C(COC(=O)/C=C/c3ccc(O)cc3)CS[C@@H]21

>  <MIC (µg/mL)>
12.5

$$$$
>  <compound>
COC(=Cc1ccc(O)cc1)C(=O)OCC1=C(C(=O)O)N2C(=O)[C@](NC(=O)CCC[C@@H](N)C(=O)O)(OC)[C@H]2SC1 [Comp. b, reference compound]

>  <MIC (µg/mL)>
50

$$$$
